- test.method.notes: Pharmacokinetic profile of locally administered formulations vs i.v docetaxel (Example 11)
- Format: in vivo, Sprague-Dawley female Rats
- measurement.setup: female, Sprague-Dawley, rat, intravenous; plasma docetaxel; single i.v 10 mg/kg
parameter.measured: AUC(0-t) (ng·h/mL)

compound: CC(=O)O[C@@]12CO[C@@H]1C[C@H](O)[C@@]1(C)C(=O)[C@H](O)C3=C(C)[C@@H](OC(=O)[C@H](O)[C@@H](NC(=O)OC(C)(C)C)c4ccccc4)C[C@@](O)([C@@H](OC(=O)c4ccccc4)[C@H]21)C3(C)C [docetaxel]
numeric.readout: 2280

---

- test.method.notes: Pharmacokinetic profile of locally administered formulations vs i.v docetaxel (Example 11)
- Assay type: in vivo, Sprague-Dawley female Rats
- measurement.setup: female, Sprague-Dawley, rat, iv; plasma docetaxel; single i.v 10 mg/kg
parameter.measured: C0

smiles.str: CC(=O)O[C@@]12CO[C@@H]1C[C@H](O)[C@@]1(C)C(=O)[C@H](O)C3=C(C)[C@@H](OC(=O)[C@H](O)[C@@H](NC(=O)OC(C)(C)C)c4ccccc4)C[C@@](O)([C@@H](OC(=O)c4ccccc4)[C@H]21)C3(C)C
result: 881 ng/mL
